assay: yeast display, Sf9 membrane polyspecificity reagent, FACS + sequencing; frameworks hold sequencing errors
Reported Property: polyreactivity (PSR sort gate)

Below: 8 sequences and their reported polyreactivity (PSR sort gate).
1) QVQLVESGGGLVQAGGSLRLSCAASGRIFRKYTMGWYRQAPGKERELVAAITGTGGSTYYADSVKGRFTISRDNAKNTVYLQMNSLKPEDTAVYYCAAVARFRYSDMYYWGQGTQVTVSS; high polyreactivity
2) QVQLVESGGGLVQAGGSLRLSCAASGRIFAGYALGWYRQAPGKERELVAAITFRSGTTYYADSVKGRFTISRDNAKNTVYLQMHSLKPEDTAVYYCAARWGPYAFTYVRTYDYWGQGTQVTGSS; low polyreactivity
3) QVQLVESGGGLVQAGGSLRLSCAASGNTFFYYAMGWYRQAPGKERELVAAINRSGGSTYYADSVKGRFTISRDNAKNTVYLQMNSLKPEDTAVYYCARVLPGGWKSRISDYWGQGTQVTVSS; low polyreactivity
4) QVQLVESGGGLVQAGGSLRLSCGASGFISKFYAMGWYRQAPGKERELVASISRDGSTSYADSVKGRFTMSRDNAKNSVYLQMNSLKPEDTAVYYCAAPSYRTRYYYWGQGTQVTVSS; high polyreactivity
5) QGQLVESGGGLVQAGGSLRLSCAASGRIFVPYGMGWYRQAPGKERELVAAITTGGSTNYADSVKGRFTISRDNAKNTVYLQMNSLKPEDTAVYYCAVDWYPQLIYSFNSELEYWGQGTQVTVSS; low polyreactivity
6) QVQLAESGGGLVQAGGSLRLSCGASGSTFVAYALGWYRQAPGKEREFVAAISRSGGSTHYADSVKGRFTISRDNAKNTVYLQMNRLNPEDTAVYYCAARVYGYGGRTYEYWGQGTQVTVSS; high polyreactivity
7) QVQLVESGGGLVQAGGSLRLSCAASGRTLSNYAMGWSRQAPGKETELVAAISSSGSTNYADSVKGRFTISRDNAKNTVYLQMNSLKPEDTAVYYCAAESWFLRWYRYDYWGQGTQVSVSS; low polyreactivity
8) QVQLVESGGGLVQAGGSLRLSCAASGFIFPGYAMGWYRQAPGKERELVAAISRSGGITYYADSVKGRFTISRDNAKNTVYLQMNSLKPEDTAVYYCAARDRVRDDYWGQGTQVTVSS; high polyreactivity

Query string: Name the reported polyreactivity (PSR sort gate) value associated with the sequence QVQLVESGGGLVQAGGSLRLSCAASGSISYFNDMGWYRQAPGKERELVAAIRDSGGITYADSVKGRFTISRDNAKYTVYLQMNSLKPEDTAVYYCATYGNEIYDYWGQGTQVTVSS
Result string: low polyreactivity

Query string: Could you share which polyreactivity (PSR sort gate) value was measured for QDQLVESGGGLVQAGGSLRLSCAASGSSFFSNAMGWYRPAPGKERELVAAITSTGGSTYYADSVKGRFTISRDHAKNTVYLQMNSLKPEDTAVYYCAAASRRGYYYWGQGTQVTVSS ?
Result string: high polyreactivity

Query string: Which polyreactivity (PSR sort gate) value belongs to QVQLVESGGGLVQAGGSLRLSCSASGSIFPTYAMGWYRKAPGKERELVAAIRSGSNTYYADSVKGRFTISRDNAKNTVYLQMNSLKPEDTAVYYCNKATNLSGGYDSWGQGTQVTVSS ?
Result string: low polyreactivity

----------
experiment: yeast display, Sf9 membrane polyspecificity reagent, FACS + sequencing; frameworks hold sequencing errors
Reported Property: polyreactivity (PSR sort gate)

1) QVQLVESGGGLVQAGGSLRLTCAASGITFRKYAMGWYRQAPGKERELVAGIRYSGSSTYYADSVKGRFTISRDNAKNTVYLQMNSLKPEDTAVYYGATGGYVWYRSVNVWTRMDYWGQGTQVTVSS; high polyreactivity
2) QVQLVESGGGLVQAGGSLRLSCAASGSTLRGNAMGRYRQAPGKVREFVAAISSSGGRTYYADSVKGRFTISRDNAKNTVNLQMTSLNPEDTAVYYCAAARYQYYFSSVPRAYYYWGQGTQVTVSS; high polyreactivity
3) QVQLVESGGGLVQAGGSLRLSCAASGGTFSRNVMGWYRQAPGTERELVAAISFSGGTTYYADSVKGRFTISRDNAKNTVYLQMISLKPEDTAVYYCAARPVNTVRPFDYWGQGTQVTVSS; high polyreactivity

----------
assay: yeast display, Sf9 membrane polyspecificity reagent, FACS + sequencing; frameworks hold sequencing errors
Reported Property: polyreactivity (PSR sort gate)

Use the examples below as a reference point.
1. QVQLVESGGGLVQAGGSHRLICAASGSTFNFNVMGWYRQEPGKERELDAAISSSGGNTYYADSVKGRFTISRDNAKNTVYLQMNSLKPEDTAVYYCADEYEEWYSVFLYDYWGQGTQVTVSS; high polyreactivity
2. QVQLVESGGGLVQAGGSLRLSCAPSGLIFASYAMGWYRQAPGKERELVAAITSSGGSTYYADSVKGRFTISRDNAKNTVYLQMNSLKPEDTAVYYCAADIYTYNLFYHWRWLDYNYWGQGTQVTVSS; high polyreactivity
3. QVQLVESGGGLVQEGGSLRLSCAASGRIYARNAMGWYRQAPGKERDLVAAIRNSDGSTYYADSVNGRFTISRDNAKNSVYLQMNSLKPEDTAVYYCNTVPYPAYLARMDYWGQGTQVTVSS; high polyreactivity
4. QDQLVESGGGLVQAGGSLRLSCAASGFTFYPYAMGWYRQAPGKERELVAAITYIGSTYYADSVKGRFTISRDNAKNTVYLQMNSLKPEDTAVYYCAAVKVFLGLGYDYWGQGTQVTVSS; low polyreactivity
5. QVQLVESGGVLVQAGGSLRLSCAAAGRIFIWNAMGWYRQAPGKERELDAAISSGGTYYADSVKGRFTISRDNAKNTVYLQMNSLKPEDTAVYYCAADWEVYVSEFVYWGQGTQVTVSS; low polyreactivity
6. QVQLVESGGGLVQAGGSLRLSCAASGSTLTRNDIGWYRQAPGKERELVAAITFSGSDTYYADSVKGRFTISRDNAKNTVYLQMNILKPEDTAVYYCAAEYGGYSIYLFIGRYYWGQGTQVTVSS; low polyreactivity
7. QVQLVEAGGGLVQAGGSLRLSCAPSGFICYYYGMGWYRQAPGKDREVVASIRSGGSTNYADSVKGRFTISRDNAKNTGYLQMNWLKPEDTAVYNCAASLLNRISNYDYWGQGTQVTVKS; high polyreactivity
8. QVQLVESGGGLVQAGGSLRLSCATSGITFIGKYAMGWYRQAPGKERELVAAISWSGGRTYYADSVKGRFTISRDNAKNSDYLQMNSLKPEDTAVYYCAVYPRDAERYGYWGQGTQVTVSS; high polyreactivity

Query string: # lookup: polyreactivity (PSR sort gate) of LVQLQESAGGLVQAGGSLRLSCAASGSISVTRAMCWYRQAPGNERELVASTTGGSNNADSVNGRFTISRDNAKNTVYLQMNSLKPEDTAVYYCAAAVGVGRSGGTYDYWGQGTQVTVSS
Result string: low polyreactivity

Query string: Recorded polyreactivity (PSR sort gate) for QVQLVESGGGLVQAGGSLRLSCAASGSTFPGYAMGWYRQAPGKDRELVAAISKRGGSTRYADSVKGRFTISRDKAKNTVYLQMNSLKPEDTAVYYCNAVYTKRYKYYYTSGYWGQGTQVTVSS , please?
Result string: high polyreactivity

Query string: What polyreactivity (PSR sort gate) value was documented for this sequence, QVQLVESGGGLDQAGGSLRLSCAASGRIFVPNAMGWYRQAPGKERELVAAINWGGGSTYYADSVKGRFTISRDNAKNTVYLQMNSLKPEDTAVYYCAADHPYTIGVLPNQQFDYWGQGPQVTVSS ?
Result string: low polyreactivity

Query string: Look at this sequence and give its reported polyreactivity (PSR sort gate). QVQLVESGGGLVQAGGSLRLSCAASGLTFWWYAMGWYRQAPGKERELVAAISSSGGSTYYADSVKGRFTISRDIAKNTVYLQMNSLKPEDTAVYYCAVASWDNYWDPYGYWGQGTQVTVSS
Result string: low polyreactivity

Query string: Requested read-out: polyreactivity (PSR sort gate). Entry: QVQLVESGGGLVQAGGSLRLSCAASGSIFLAYAMGWYRQAPGKERELVADISYSGGRTYYADSVMGRFTISRDNAKNTVYLQMNSLIPEDTAVYYCAADPWHDTDQHGNDYWGQGSQVTVSS
Result string: low polyreactivity

Query string: Which measured polyreactivity (PSR sort gate) value corresponds to QVQLVESGGGLVQAGGSLRLSCAASGRTFRLYAMGWDRPAPGKERELVAAITRGGRTTYADSVKGRFTISRDNAKNTVYLQMNSLKPEDTAVYYCAARYVERHTDYYYWGQGTQVTVSS ?
Result string: low polyreactivity

Query string: Field request: polyreactivity (PSR sort gate) | item: QVHLVESAAGLVQEGGSLRVSCAASGRIFDIYAMGGYRQSTGKERELVAAITLRGGTTYADSVKGRFTISRDNAKNSVYLQMNSLKPEDTAVYYCARYHWYYRVSKSESWGQGTQVTVSS
Result string: high polyreactivity

Query string: Name the reported polyreactivity (PSR sort gate) value associated with the sequence QVQLVESGGGLVQAGGSLRLSCAASGSIFDDYAMGGYRQAHGKERELVAAISSSGTSTYYADSVKGRFTISRDNAKNTVYLQMNCLKPEDTAVYYCAARSAILKSAYLMDYWGQGTQVTVSS
Result string: low polyreactivity
